Molecular target: human SGLT2 (Homo sapiens, UniProt P31639)
Construct: expressed in transfected cells
Sequence (P31639 whole entry): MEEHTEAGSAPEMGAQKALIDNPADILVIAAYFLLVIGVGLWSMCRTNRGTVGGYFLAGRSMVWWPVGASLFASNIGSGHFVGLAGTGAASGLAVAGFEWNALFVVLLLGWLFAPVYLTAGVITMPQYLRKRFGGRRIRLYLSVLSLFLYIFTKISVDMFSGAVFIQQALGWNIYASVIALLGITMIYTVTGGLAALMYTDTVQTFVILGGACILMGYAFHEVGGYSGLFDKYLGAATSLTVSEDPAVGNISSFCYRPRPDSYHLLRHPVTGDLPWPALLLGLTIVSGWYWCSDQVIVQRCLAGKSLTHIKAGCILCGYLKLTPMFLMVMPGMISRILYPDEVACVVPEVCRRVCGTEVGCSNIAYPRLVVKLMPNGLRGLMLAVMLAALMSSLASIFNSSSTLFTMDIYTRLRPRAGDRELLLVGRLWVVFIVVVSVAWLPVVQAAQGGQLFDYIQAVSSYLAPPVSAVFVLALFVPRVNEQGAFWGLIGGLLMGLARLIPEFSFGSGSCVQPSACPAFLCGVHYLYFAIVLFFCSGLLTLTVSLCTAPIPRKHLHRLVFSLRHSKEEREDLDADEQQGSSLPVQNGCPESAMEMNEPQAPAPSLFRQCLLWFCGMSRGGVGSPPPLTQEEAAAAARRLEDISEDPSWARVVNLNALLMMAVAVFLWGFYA
Assay: SGLT2 assay: Na-dependent 14C-AMG uptake in CHO-K1 cells stably expressing human SGLT2
Format: cell-based
Conditions: average if tested more than once
pIC50: −log10 of the molar value.
endpoint.name: pIC50

Solved cases below.
- smiles.structure: "OC[C@H]1O[C@@H](c2cc(Cc3ccc4c(c3)OCCO4)c3c(c2)OCC3)[C@H](O)[C@@H](O)[C@@H]1F"
  assay.target: "human SGLT2 (Homo sapiens, UniProt P31639)"
  pIC50: 7.24
- smiles.structure: "COc1cc(O)c([C@@H]2O[C@H](C)[C@@H](F)[C@H](O)[C@H]2O)cc1Cc1cc2ccccc2s1"
  assay.target: "human SGLT2 (Homo sapiens, UniProt P31639)"
  pIC50: 7.09
- smiles.structure: "OC[C@H]1O[C@@H](c2cc(Cc3ccc4c(c3)CCCO4)c(Cl)c3c2OCC3)[C@H](O)[C@@H](O)[C@@H]1F"
  assay.target: "human SGLT2 (Homo sapiens, UniProt P31639)"
  pIC50: 7.77
- smiles.structure: "[2H]C([2H])(c1ccc2c(c1)OCCO2)c1cc([C@@H]2O[C@H](CO)[C@@H](F)[C@H](O)[C@H]2O)ccc1Cl"
  assay.target: "human SGLT2 (Homo sapiens, UniProt P31639)"
  pIC50: 7.96
- smiles.structure: "[2H]C([2H])([2H])Oc1c([C@@H]2O[C@H](CO)[C@@H](F)[C@H](O)[C@H]2O)cc(Cc2ccc3c(c2)OCCO3)c2c1CCO2"
  assay.target: "human SGLT2 (Homo sapiens, UniProt P31639)"
  pIC50: 8.10
- smiles.structure: "COc1cc(C)c(Cc2cc3ccccc3s2)cc1[C@@H]1O[C@H](CO)[C@@H](F)[C@H](O)[C@H]1O"
  assay.target: "human SGLT2 (Homo sapiens, UniProt P31639)"
  pIC50: 7.74

I = OC[C@H]1O[C@@H](c2cc(Cc3ccc4c(c3)OCCO4)c3c(c2O)CCO3)[C@H](O)[C@@H](O)[C@@H]1F
II = CCOC(=O)N1CCc2sc(Cc3cc([C@@H]4O[C@H](CO)[C@@H](F)[C@H](O)[C@H]4O)c(O)cc3C)cc2C1
q: Quick check, higher pIC50 between I and II ? Give the label of your selection.
a: I
(I: 8.52, II: 7.44)

Data provenance: patent US11014917B2
